Active and inactive are the calls of the source.
Assay read-out Kd; system under study: Serine/threonine-protein kinase 24 (Homo sapiens, UniProt Q9Y6E0). Also: in the data inactive means no Kd found up to 30 µM.
Sequence (Q9Y6E0 whole entry): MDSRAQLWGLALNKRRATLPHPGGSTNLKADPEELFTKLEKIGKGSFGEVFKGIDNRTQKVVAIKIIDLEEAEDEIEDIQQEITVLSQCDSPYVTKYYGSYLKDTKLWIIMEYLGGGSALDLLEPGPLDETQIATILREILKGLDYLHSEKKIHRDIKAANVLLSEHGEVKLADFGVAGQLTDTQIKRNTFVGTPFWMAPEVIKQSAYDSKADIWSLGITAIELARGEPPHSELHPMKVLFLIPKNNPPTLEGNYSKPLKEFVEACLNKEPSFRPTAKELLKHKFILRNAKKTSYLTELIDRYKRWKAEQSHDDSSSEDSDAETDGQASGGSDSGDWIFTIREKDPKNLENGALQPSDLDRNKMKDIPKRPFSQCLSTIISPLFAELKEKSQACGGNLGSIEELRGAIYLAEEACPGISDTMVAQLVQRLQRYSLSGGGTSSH

For each of the compounds below, state Kd.
1. O=S(=O)(c1cccc2c(O)nccc12)N1CCCNCC1 [HYDROXYFASUDIL]
2. COc1ccc2c(OCc3nnc4ccc(-c5ccccc5)nn34)ccnc2c1
3. C[C@@H]1COC(Nc2ccc3ncnc(Nc4ccc(OCc5nccs5)c(Cl)c4)c3c2)=N1

## Output
["> 30 µM (inactive)", "> 30 µM (inactive)", "> 30 µM (inactive)"]

====

# TARGET ENTITY: Serine/threonine-protein kinase 10 (Homo sapiens); also: in the data inactive means no Kd found up to 30 µM
# Sequence (O94804 whole entry): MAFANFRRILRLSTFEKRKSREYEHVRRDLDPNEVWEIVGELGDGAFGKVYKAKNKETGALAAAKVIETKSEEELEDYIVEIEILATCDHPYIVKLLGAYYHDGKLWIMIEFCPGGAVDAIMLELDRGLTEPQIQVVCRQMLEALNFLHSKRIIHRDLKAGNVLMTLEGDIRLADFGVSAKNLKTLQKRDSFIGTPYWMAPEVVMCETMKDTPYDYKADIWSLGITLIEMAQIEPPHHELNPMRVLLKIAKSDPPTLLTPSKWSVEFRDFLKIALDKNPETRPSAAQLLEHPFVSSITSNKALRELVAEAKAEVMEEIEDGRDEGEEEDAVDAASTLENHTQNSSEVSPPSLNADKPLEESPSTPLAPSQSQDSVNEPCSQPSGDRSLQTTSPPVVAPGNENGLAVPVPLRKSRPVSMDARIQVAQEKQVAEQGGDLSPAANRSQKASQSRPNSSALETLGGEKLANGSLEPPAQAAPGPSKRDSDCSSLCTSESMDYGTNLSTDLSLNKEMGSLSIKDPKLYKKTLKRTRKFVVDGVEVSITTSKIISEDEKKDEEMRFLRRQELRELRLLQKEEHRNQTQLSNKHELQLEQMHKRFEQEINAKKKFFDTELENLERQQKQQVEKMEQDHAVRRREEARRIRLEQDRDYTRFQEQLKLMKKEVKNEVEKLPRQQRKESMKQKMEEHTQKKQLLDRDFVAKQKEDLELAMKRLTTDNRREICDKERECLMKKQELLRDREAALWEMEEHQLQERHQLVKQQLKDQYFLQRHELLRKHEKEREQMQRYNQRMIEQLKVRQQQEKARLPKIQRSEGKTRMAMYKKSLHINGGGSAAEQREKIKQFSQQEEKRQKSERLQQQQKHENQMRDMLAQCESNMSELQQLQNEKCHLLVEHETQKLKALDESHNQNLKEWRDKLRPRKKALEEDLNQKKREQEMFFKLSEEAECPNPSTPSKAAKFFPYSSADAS
Activity calls are given as the source filed them.
Use one of these outcomes when replying: class 1 = active, class 0 = inactive

| COMPOUND | CATEGORY LABEL |
| --- | --- |
| C[C@@H]1COC(Nc2ccc3ncnc(Nc4ccc(OCc5nccs5)c(Cl)c4)c3c2)=N1 [VARLITINIB] | class 0 |
| S=C(NCc1ccc2c(c1)OCO2)N1CCN(c2ncnc3c2oc2ccccc23)CC1 [AMUVATINIB] | class 0 |

## Input Recorded call for COc1cccc(Nc2ncnn3ccc(CN4CC[C@@H](N)[C@H](O)C4)c23)c1 [BMS-690514] ?
## Output class 1

## Input Recorded call for CNC(=O)c1cc(COc2nnc(Nc3ccc(Cl)cc3)c3ccoc23)ccn1 [TELATINIB] ?
## Output class 0

====

Would you kindly list Kd for each of these compounds?
# TARGET ENTITY: Serine/threonine-protein kinase A-Raf (Homo sapiens); also: in the data inactive means no Kd found up to 30 µM
# Sequence (P10398 whole entry): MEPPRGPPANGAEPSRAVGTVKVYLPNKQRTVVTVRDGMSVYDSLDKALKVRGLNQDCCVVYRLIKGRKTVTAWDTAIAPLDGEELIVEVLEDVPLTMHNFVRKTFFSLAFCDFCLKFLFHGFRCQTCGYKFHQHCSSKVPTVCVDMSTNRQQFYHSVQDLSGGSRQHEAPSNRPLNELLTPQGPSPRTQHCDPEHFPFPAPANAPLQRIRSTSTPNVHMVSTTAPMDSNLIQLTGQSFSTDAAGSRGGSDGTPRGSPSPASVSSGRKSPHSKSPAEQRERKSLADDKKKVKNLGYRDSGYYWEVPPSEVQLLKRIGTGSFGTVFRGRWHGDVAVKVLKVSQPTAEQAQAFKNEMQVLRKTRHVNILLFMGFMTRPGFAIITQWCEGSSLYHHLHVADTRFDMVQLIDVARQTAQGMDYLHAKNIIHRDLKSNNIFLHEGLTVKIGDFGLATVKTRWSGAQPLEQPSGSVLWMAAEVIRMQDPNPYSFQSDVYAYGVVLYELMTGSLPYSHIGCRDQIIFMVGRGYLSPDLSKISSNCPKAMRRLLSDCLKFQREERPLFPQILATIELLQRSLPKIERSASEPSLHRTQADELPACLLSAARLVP
Activity calls are given as the source filed them.

For each of the compounds below, state Kd.
1. CNC(=O)c1cc(COc2nnc(Nc3ccc(Cl)cc3)c3ccoc23)ccn1
2. CCN1CCN(Cc2ccc(Nc3ncc(F)c(-c4cc(F)c5nc(C)n(C(C)C)c5c4)n3)nc2)CC1

## Output
["> 30 µM (inactive)", "> 30 µM (inactive)"]

For each of the compounds below, state Kd.
1. C=CC(=O)Nc1cc(Nc2nccc(-c3cn(C)c4ccccc34)n2)c(OC)cc1N(C)CCN(C)C
2. Cc1c(Cn2c(C)nc3c(C(=O)O)cc(N4CCOCC4)cc32)cccc1C(F)(F)F
3. O=C(NOC[C@H](O)CO)c1ccc(F)c(F)c1Nc1ccc(I)cc1F
4. O=c1[nH]c([C@@H]2CCCN2)nc2c1oc1ccc(Cl)cc12
5. c1cc(OCCN2CCCCC2)cc(-c2n[nH]c3ccc(-c4nc[nH]n4)cc23)c1
6. CCc1cc2c(cc1N1CCC(N3CCOCC3)CC1)C(C)(C)c1[nH]c3cc(C#N)ccc3c1C2=O

## Output
1: > 30 µM (inactive); 2: > 30 µM (inactive); 3: > 30 µM (inactive); 4: > 30 µM (inactive); 5: > 30 µM (inactive); 6: > 30 µM (inactive)

====

Would you kindly list Kd for each of these molecules?
# TARGET ENTITY: Ephrin type-B receptor 4 (Homo sapiens, UniProt P54760); also: in the data inactive means no Kd found up to 30 µM
# Sequence (P54760 whole entry): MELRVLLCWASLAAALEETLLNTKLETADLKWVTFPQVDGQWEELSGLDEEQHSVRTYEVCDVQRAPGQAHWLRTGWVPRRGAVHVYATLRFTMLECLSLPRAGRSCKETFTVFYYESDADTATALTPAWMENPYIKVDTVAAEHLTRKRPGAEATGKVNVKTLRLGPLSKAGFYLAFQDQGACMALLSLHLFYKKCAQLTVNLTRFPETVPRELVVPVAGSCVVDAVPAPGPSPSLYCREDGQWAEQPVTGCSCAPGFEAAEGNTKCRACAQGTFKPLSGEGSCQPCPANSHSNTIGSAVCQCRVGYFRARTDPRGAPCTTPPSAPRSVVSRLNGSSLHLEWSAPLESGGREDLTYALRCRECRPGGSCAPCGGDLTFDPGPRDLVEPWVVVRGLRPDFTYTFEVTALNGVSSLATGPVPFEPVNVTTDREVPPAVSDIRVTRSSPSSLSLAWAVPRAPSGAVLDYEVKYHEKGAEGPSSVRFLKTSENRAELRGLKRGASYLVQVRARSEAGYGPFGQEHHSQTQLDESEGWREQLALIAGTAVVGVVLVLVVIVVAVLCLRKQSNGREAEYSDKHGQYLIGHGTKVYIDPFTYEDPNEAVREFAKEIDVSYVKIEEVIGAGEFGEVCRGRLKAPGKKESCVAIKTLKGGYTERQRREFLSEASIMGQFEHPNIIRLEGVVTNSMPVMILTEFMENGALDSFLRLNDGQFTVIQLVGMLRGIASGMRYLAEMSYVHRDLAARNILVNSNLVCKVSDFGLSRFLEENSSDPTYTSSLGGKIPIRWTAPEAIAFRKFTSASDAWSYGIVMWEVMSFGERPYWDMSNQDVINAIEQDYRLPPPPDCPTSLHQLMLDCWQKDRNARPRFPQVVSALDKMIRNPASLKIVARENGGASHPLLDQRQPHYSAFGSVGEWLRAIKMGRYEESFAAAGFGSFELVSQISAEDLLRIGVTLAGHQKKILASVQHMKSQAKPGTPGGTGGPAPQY
Activity calls are given as the source filed them.

| MOLECULE | Kd |
| --- | --- |
| COc1cc2ncnc(Nc3ccc(F)c(Cl)c3)c2cc1NC(=O)/C=C/CN1CCCCC1 [DACOMITINIB ANHYDROUS] | > 30 µM (inactive) |

For each of the molecules below, state Kd.
1. COc1cc(F)c(F)c(Nc2ccc(I)cc2F)c1NS(=O)(=O)C1(C[C@H](O)CO)CC1
2. Cn1c(=O)n(-c2ccc(C(C)(C)C#N)cc2)c2c3cc(-c4cnc5ccccc5c4)ccc3ncc21
3. CN(c1ncccc1CNc1nc(Nc2ccc3c(c2)CC(=O)N3)ncc1C(F)(F)F)S(C)(=O)=O
4. CN1CCN(c2nc(C3=C(c4c[nH]c5ccccc45)C(=O)NC3=O)c3ccccc3n2)CC1
5. Cc1cc(Nc2nc(N[C@@H](C)c3ncc(F)cn3)ncc2Cl)n[nH]1
6. O=S(=O)(c1cccc2cnccc12)N1CCCNCC1
7. O=C(NC[C@H](O)CO)c1ccncc1Nc1ccc(I)cc1F

## Output
["> 30 µM (inactive)", "> 30 µM (inactive)", "> 30 µM (inactive)", "> 30 µM (inactive)", "> 30 µM (inactive)", "> 30 µM (inactive)", "> 30 µM (inactive)"]

====

# TARGET ENTITY: Eukaryotic translation initiation factor 5B (Homo sapiens, UniProt O60841); also: in the data inactive means no Kd found up to 30 µM
# Sequence (O60841 whole entry): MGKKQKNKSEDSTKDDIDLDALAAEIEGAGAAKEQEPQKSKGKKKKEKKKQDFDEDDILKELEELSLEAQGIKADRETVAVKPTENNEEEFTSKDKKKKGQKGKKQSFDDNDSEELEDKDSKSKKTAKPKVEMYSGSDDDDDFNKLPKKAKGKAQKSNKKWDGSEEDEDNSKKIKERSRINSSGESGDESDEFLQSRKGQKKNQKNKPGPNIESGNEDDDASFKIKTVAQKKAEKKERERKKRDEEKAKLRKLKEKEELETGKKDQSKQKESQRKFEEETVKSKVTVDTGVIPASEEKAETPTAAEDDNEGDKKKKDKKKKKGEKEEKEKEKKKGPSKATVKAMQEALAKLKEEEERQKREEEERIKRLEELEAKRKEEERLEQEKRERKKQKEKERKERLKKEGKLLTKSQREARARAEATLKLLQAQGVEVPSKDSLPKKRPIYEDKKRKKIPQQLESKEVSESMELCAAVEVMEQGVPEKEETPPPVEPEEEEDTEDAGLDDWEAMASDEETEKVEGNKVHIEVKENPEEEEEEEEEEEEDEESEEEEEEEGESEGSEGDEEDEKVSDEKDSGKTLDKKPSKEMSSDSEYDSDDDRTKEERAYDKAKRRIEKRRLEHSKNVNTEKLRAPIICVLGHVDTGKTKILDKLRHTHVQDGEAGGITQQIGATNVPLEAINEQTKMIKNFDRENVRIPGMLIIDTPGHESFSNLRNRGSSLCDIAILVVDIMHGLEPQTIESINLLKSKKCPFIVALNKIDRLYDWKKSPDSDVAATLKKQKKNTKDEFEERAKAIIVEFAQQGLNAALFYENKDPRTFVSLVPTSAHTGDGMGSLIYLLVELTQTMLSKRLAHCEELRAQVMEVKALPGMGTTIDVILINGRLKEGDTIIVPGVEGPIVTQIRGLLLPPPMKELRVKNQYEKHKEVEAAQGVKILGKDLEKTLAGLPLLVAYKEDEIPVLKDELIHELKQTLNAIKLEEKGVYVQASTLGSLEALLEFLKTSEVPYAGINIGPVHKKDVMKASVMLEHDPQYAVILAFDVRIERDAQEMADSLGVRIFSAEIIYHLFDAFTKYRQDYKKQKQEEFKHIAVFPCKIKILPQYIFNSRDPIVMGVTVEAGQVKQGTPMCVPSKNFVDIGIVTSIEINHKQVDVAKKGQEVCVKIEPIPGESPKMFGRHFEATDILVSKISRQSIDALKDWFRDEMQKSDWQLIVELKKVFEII
Activity calls are given as the source filed them.
ASSAY READOUT: Kd

Completed entries (count: 2):
| MOL SMILES | Kd |
| --- | --- |
| C#Cc1cccc(Nc2ncnc3cc4c(cc23)OCCOCCOCCO4)c1 | > 30 µM (inactive) |
| Cn1c(=O)c(F)c(Nc2ccc(I)cc2F)c2c(=O)n(C[C@@H](O)CO)cnc21 | > 30 µM (inactive) |

Next molecule, please.
## Input Check the records and state Kd for `S=C(NCc1ccc2c(c1)OCO2)N1CCN(c2ncnc3c2oc2ccccc23)CC1`
## Output > 30 µM (inactive)

====

# TARGET ENTITY: Dual specificity mitogen-activated protein kinase kinase 2 (Homo sapiens); also: in the data inactive means no Kd found up to 30 µM
# Sequence (P36507 whole entry): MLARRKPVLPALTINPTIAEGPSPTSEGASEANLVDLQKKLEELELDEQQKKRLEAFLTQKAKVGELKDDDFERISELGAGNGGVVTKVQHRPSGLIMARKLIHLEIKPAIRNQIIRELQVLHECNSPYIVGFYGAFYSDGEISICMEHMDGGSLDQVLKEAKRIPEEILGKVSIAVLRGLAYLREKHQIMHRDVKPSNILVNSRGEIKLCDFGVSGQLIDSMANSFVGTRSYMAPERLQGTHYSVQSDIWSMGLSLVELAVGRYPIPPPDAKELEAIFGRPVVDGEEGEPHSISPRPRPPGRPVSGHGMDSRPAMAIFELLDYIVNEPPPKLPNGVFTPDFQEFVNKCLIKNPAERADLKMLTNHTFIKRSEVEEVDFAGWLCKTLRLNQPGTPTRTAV
Active and inactive are the calls of the source.
Use one of these outcomes when replying: true = active, false = inactive

## Input Recorded call for `Cc1cc(Nc2nc(N[C@@H](C)c3ncc(F)cn3)ncc2Cl)n[nH]1` ?
## Output false

## Input Recorded call for `CC[C@@](C)(Nc1ccnc(-c2c[nH]c3ncccc23)n1)C(=O)NCC(F)(F)F` ?
## Output false

## Input Recorded call for `C=CC(=O)Nc1cc(Nc2nccc(-c3cn(C)c4ccccc34)n2)c(OC)cc1N(C)CCN(C)C` ?
## Output false

## Input Recorded call for `O[C@H]1CC[C@H](Nc2ncc3nc(Nc4c(F)cc(F)cc4F)n([C@H]4CCOC4)c3n2)CC1` ?
## Output false

## Input Recorded call for `O=C(Nc1ccc(OC(F)(F)F)cc1)c1sccc1NCc1ccnc2ccccc12` ?
## Output false

## Input Recorded call for `Cc1ccc(C(=O)Nc2ccc(Oc3cc4cnn(C)c4cc3-c3cn[nH]c3)c(F)c2)c(=O)n1-c1ccc(F)cc1` ?
## Output false

## Input Recorded call for `COc1cccc(Nc2ncnn3ccc(CN4CC[C@@H](N)[C@H](O)C4)c23)c1` ?
## Output false

====

Assay read-out Kd; system under study: Serine/threonine-protein kinase 16 (Homo sapiens, UniProt O75716). Also: in the data inactive means no Kd found up to 30 µM.
Sequence (O75716 whole entry): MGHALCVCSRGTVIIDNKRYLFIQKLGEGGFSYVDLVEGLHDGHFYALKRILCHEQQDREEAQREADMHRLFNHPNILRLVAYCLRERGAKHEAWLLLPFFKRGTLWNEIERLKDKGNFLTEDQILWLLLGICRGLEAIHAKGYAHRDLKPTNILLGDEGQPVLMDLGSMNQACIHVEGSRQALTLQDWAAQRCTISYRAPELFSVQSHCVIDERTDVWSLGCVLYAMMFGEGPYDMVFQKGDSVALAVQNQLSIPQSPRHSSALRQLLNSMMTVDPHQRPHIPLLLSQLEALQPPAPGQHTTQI
The source made the active and inactive calls.

| MOL SMILES | TARGET ENTITY | Kd |
| --- | --- | --- |
| C=CCN(/C=C1/C(=O)O[C@H](COC)[C@@]2(C)C1=C(O)C(=O)C1=C2[C@H](OC(C)=O)C[C@]2(C)C(=O)CC[C@@H]12)CC=C | Serine/threonine-protein kinase 16 (Homo sapiens, UniProt O75716) | > 30 µM (inactive) |
| NC(=O)c1ccc(N(C(N)=O)c2c(F)cccc2F)nc1-c1ccc(F)cc1F | Serine/threonine-protein kinase 16 (Homo sapiens, UniProt O75716) | > 30 µM (inactive) |

Next compound, please.
## Input Check the records and state Kd for `CNC(=O)c1cccc(-c2ccc3c(N4CCOC[C@@H]4C)nc(N4CCOC[C@@H]4C)nc3n2)c1`
## Output > 30 µM (inactive)

====

# TARGET ENTITY: Elongation factor Tu, mitochondrial (Homo sapiens, UniProt P49411); also: in the data inactive means no Kd found up to 30 µM
The source made the active and inactive calls.
Would you kindly list Kd for each of these molecules?

| MOL SMILES | TARGET ENTITY | RESULT |
| --- | --- | --- |
| COc1cc2c(Oc3ccc4[nH]c(C)cc4c3F)ncnc2cc1OCCCN1CCCC1 | Elongation factor Tu, mitochondrial (Homo sapiens, UniProt P49411) | > 30 µM (inactive) |
| CCc1cc2c(cc1N1CCC(N3CCOCC3)CC1)C(C)(C)c1[nH]c3cc(C#N)ccc3c1C2=O | Elongation factor Tu, mitochondrial (Homo sapiens, UniProt P49411) | > 30 µM (inactive) |
| CNC(=O)c1cc(COc2nnc(Nc3ccc(Cl)cc3)c3ccoc23)ccn1 | Elongation factor Tu, mitochondrial (Homo sapiens, UniProt P49411) | > 30 µM (inactive) |
| C=CC(=O)Nc1cc(Nc2nccc(-c3cn(C)c4ccccc34)n2)c(OC)cc1N(C)CCN(C)C | Elongation factor Tu, mitochondrial (Homo sapiens, UniProt P49411) | > 30 µM (inactive) |
| Cc1cc(-c2cc(OC(=O)c3ccccc3)ccc2Cl)cc2nnc(Nc3ccc(OCCN4CCCC4)cc3)nc12 | Elongation factor Tu, mitochondrial (Homo sapiens, UniProt P49411) | > 30 µM (inactive) |
| COCCN1CCN(Cc2ccc(-c3n[nH]c4c3C(=O)c3c(NC(=O)NN5CCOCC5)cccc3-4)cc2)CC1 | Elongation factor Tu, mitochondrial (Homo sapiens, UniProt P49411) | > 30 µM (inactive) |

For each of the molecules below, state Kd.
1. COc1ccc2c(OCc3nnc4ccc(-c5ccccc5)nn34)ccnc2c1
2. Cc1cc(C(=O)Nc2cc(Oc3ccc4nc(NC(=O)C5CC5)cn4n3)ccc2C)n(C)n1

## Output
> 30 µM (inactive)
> 30 µM (inactive)
